Test system: NCI-H460
Protocol Text: Cytotoxicity against human H460 cells
Format: functional, cell-based
pIC50: −log10 of the molar value.

>  <Smiles Entry>
C=C1[C@H]2C[C@@]3(OC(=O)c4ccccc4)C(=O)[C@@H]4[C@](O)(COC(C)=O)[C@@H](O)C[C@H](O)[C@@]4(C)[C@H](O)[C@@](O)(O2)[C@@H]1C3(C)C

>  <pIC50>
4.02

$$$$
>  <Smiles Entry>
CC(=O)O[C@@]12CO[C@@H]1C[C@H](O)[C@@]1(C)C(=O)[C@H](O)C3=C(C)[C@@H](O)C[C@@](O)([C@@H](OC(=O)c4ccccc4)[C@H]21)C3(C)C

>  <pIC50>
5.51

$$$$
>  <Smiles Entry>
CC(=O)O[C@@]12CO[C@@H]1C[C@@H](O)[C@@]1(C)C(=O)C(=O)C3=C(C)[C@@H](O)C[C@@](O)([C@@H](OC(=O)c4ccccc4)[C@H]21)C3(C)C

>  <pIC50>
4.22

$$$$
>  <Smiles Entry>
C=C1[C@H]2C[C@@]3(OC(=O)c4ccccc4)C(=O)[C@@H]4[C@]5(OC(C)=O)CO[C@@H]5C[C@H](O)[C@@]4(C)[C@H](O)[C@@](O)(O2)[C@@H]1C3(C)C

>  <pIC50>
4.29

$$$$
